molecular target: human Gal-1 (hGal-1); assay: Competitive binding assay: binding of biotinylated hGal-1 to microplate-adsorbed asialofetuin (ASF); conditions: Activities on hGal-1; mean values of several measurements
Sequence (P09382 2-135 limits assumed): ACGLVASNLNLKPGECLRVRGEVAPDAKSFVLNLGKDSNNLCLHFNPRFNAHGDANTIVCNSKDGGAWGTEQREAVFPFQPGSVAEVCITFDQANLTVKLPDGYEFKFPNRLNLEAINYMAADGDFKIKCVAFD
endpoint.name: pIC50
Give only the number. pIC50 is defined as minus log10 of concentration in molar units.

Requested read-out pIC50, target or system human Gal-1 (hGal-1), entry CO[C@@H]1[C@@H](n2cc(-c3ccc(Cl)c(F)c3F)nn2)[C@@H](O)[C@@H](CO)O[C@@H]1Cc1cc(C(C)(C)O)no1
5.76

Requested read-out pIC50, target or system human Gal-1 (hGal-1), entry CO[C@@H]1[C@@H](n2cc(-c3ccc(C)c(F)c3F)nn2)[C@@H](O)[C@@H](CO)O[C@@H]1Cc1cc(C2(C)CCOCC2)on1
5.45

Requested read-out pIC50, target or system human Gal-1 (hGal-1), entry CO[C@@H]1[C@@H](n2cc(-c3ccc(Cl)c(F)c3)nn2)[C@@H](O)[C@@H](CO)O[C@@H]1Cc1cc(C2CCN(C(C)=O)CC2)on1
6.17

Requested read-out pIC50, target or system human Gal-1 (hGal-1), entry CO[C@@H]1[C@@H](n2cc(-c3cc(F)c(F)c(F)c3)nn2)[C@@H](O)[C@@H](CO)O[C@@H]1Cc1cc(C2CCC(NC(=O)[C@@H](N)C(C)C)CC2)no1 (some centres unmarked)
5.70

Requested read-out pIC50, target or system human Gal-1 (hGal-1), entry CO[C@@H]1[C@@H](n2cc(-c3ccc(Cl)c(F)c3F)nn2)[C@@H](O)[C@@H](CO)O[C@@H]1Cc1cc(C2(O)CCCC2)on1
5.48

Requested read-out pIC50, target or system human Gal-1 (hGal-1), entry CO[C@@H]1[C@@H](n2cc(-c3ccc(Cl)c(F)c3)nn2)[C@@H](O)[C@@H](CO)O[C@@H]1Cc1cn(C2CCN(C(=O)OCc3ccccc3)CC2)nn1
6.37

Requested read-out pIC50, target or system human Gal-1 (hGal-1), entry CO[C@@H]1[C@@H](n2cc(-c3cc(F)cc(F)c3)nn2)[C@@H](O)[C@@H](CO)O[C@@H]1Cc1cc(C2CCN(C(=O)OC(C)(C)C)CC2)no1
6.36

Requested read-out pIC50, target or system human Gal-1 (hGal-1), entry CO[C@@H]1[C@@H](n2cc(-c3cc(F)c(F)c(F)c3)nn2)[C@@H](O)[C@@H](CO)O[C@@H]1CC1CN(C2CCN(C(C)=O)CC2)C(=O)O1 (mixture of isomers)
6.19

Requested read-out pIC50, target or system human Gal-1 (hGal-1), entry CO[C@@H]1[C@@H](n2cc(-c3ccc(C)c(F)c3F)nn2)[C@@H](O)[C@@H](CO)O[C@@H]1Cc1cc(C(C)(O)c2ccccc2)on1 (some centres unmarked) [Ex 1.340]
4.98

Requested read-out pIC50, target or system human Gal-1 (hGal-1), entry CO[C@@H]1[C@@H](n2cc(-c3cc(F)c(F)c(F)c3)nn2)[C@@H](O)[C@@H](CO)O[C@@H]1Cn1cc(C2(O)CCCCC2)nn1
5.51

Requested read-out pIC50, target or system human Gal-1 (hGal-1), entry CO[C@@H]1[C@@H](n2cc(-c3ccc(F)c(F)c3F)nn2)[C@@H](O)[C@@H](CO)O[C@@H]1Cc1cc(C2CCN(S(C)(=O)=O)CC2)on1
7.03

Requested read-out pIC50, target or system human Gal-1 (hGal-1), entry COc1ccc(C2=NO[C@H](C[C@H]3O[C@H](CO)[C@H](O)[C@H](n4cc(-c5cc(F)c(F)c(F)c5)nn4)[C@H]3O)C2)cc1
5.26

Requested read-out pIC50, target or system human Gal-1 (hGal-1), entry COc1ccc(C2=NOC(C[C@H]3O[C@H](CO)[C@H](O)[C@H](n4cc(-c5cc(F)c(F)c(F)c5)nn4)[C@H]3O)C2)c(Cl)c1 (some centres unmarked)
5.20

Requested read-out pIC50, target or system human Gal-1 (hGal-1), entry CO[C@@H]1[C@@H](n2cc(-c3ccc(F)c(F)c3F)nn2)[C@@H](O)[C@@H](CO)O[C@@H]1Cc1cc(C(C)(CO)CCl)no1 (some centres unmarked)
6.48

Requested read-out pIC50, target or system human Gal-1 (hGal-1), entry CO[C@@H]1[C@@H](n2cc(-c3cc(F)c(F)c(F)c3)nn2)[C@@H](O)[C@@H](CO)O[C@@H]1Cc1cc(C2(C)CCOCC2)no1
5.75

Requested read-out pIC50, target or system human Gal-1 (hGal-1), entry CO[C@@H]1[C@@H](n2cc(-c3cc(F)c(F)c(F)c3)nn2)[C@@H](O)[C@@H](CO)O[C@@H]1Cn1cc(C2CCOCC2)nn1
5.41

Requested read-out pIC50, target or system human Gal-1 (hGal-1), entry CO[C@@H]1[C@@H](n2cc(-c3ccc(Cl)c(F)c3F)nn2)[C@@H](O)[C@@H](CO)O[C@@H]1Cc1cc(C2CCC2)on1
4.78

Requested read-out pIC50, target or system human Gal-1 (hGal-1), entry OC[C@H]1O[C@H](Cc2cc(C3CCNCC3)on2)[C@H](OCC(F)F)[C@@H](n2cc(-c3cc(F)c(F)c(F)c3)nn2)[C@H]1O
5.35

Requested read-out pIC50, target or system human Gal-1 (hGal-1), entry CO[C@@H]1[C@@H](n2cc(-c3ccc(F)c(F)c3F)nn2)[C@@H](O)[C@@H](CO)O[C@@H]1Cc1cc(C(C)(C)CO)no1
6.55

Requested read-out pIC50, target or system human Gal-1 (hGal-1), entry CO[C@@H]1[C@@H](n2cc(-c3ccc(Cl)c(F)c3F)nn2)[C@@H](O)[C@@H](CO)O[C@@H]1Cc1cc(C2(C)CCOCC2)no1
5.96

Requested read-out pIC50, target or system human Gal-1 (hGal-1), entry CCC(=O)O[C@@H]1[C@@H](n2cc(-c3cc(F)c(F)c(F)c3)nn2)[C@@H](O)[C@@H](CO)O[C@@H]1Cc1cc(C2CCNCC2)on1 [Example 2.16]
4.94

Requested read-out pIC50, target or system human Gal-1 (hGal-1), entry CO[C@@H]1[C@@H](n2cc(-c3ccc(C)c(F)c3F)nn2)[C@@H](O)[C@@H](CO)O[C@@H]1Cc1cc(C(C)(C)CO)no1
5.75

Requested read-out pIC50, target or system human Gal-1 (hGal-1), entry CO[C@@H]1[C@@H](n2cc(-c3cc(F)c(F)c(F)c3)nn2)[C@@H](O)[C@@H](CO)O[C@@H]1Cc1cc(C2CCN(C)CC2)on1
5.29

---

molecular target: human Gal-1 (hGal-1); assay: Competitive binding assay: binding of biotinylated hGal-1 to microplate-adsorbed asialofetuin (ASF); settings: Activities on hGal-1; mean values of several measurements
I'd be grateful if you could share measured pIC50 for these entries.
Give only the number. pIC50 is defined as minus log10 of concentration in molar units.

pIC50 for CCCO[C@@H]1[C@@H](n2cc(-c3cc(F)c(F)c(F)c3)nn2)[C@@H](O)[C@@H](CO)O[C@@H]1Cc1cc(C2CCN(C(=O)OC(C)(C)C)CC2)on1 ?
5.98

pIC50 for COc1cc(F)c(F)cc1-c1cn([C@H]2[C@@H](O)[C@@H](CO)O[C@H](CC3CC(C4CCN(C(=O)OC(C)(C)C)CC4)=NO3)[C@@H]2O)nn1 (stereo partly drawn) ?
5.82

pIC50 for OC[C@H]1O[C@H](CC2=NOC(C3CCNCC3)C2)[C@H](O)[C@@H](n2cc(-c3cc(F)c(F)c(F)c3)nn2)[C@H]1O (mixture of isomers) ?
4.88

pIC50 for CO[C@@H]1[C@@H](n2cc(-c3cc(F)c(F)c(F)c3)nn2)[C@@H](O)[C@@H](CO)O[C@@H]1CC1CC(C2CCCCC2)=NO1 (stereo partly drawn) ?
5.06

pIC50 for CO[C@@H]1[C@@H](n2cc(-c3cc(F)c(Cl)c(F)c3)nn2)[C@@H](O)[C@@H](CO)O[C@@H]1Cc1cc(C(C)(C)C)on1 ?
5.45

pIC50 for CO[C@@H]1[C@@H](n2cc(-c3cc(F)c(F)c(F)c3)nn2)[C@@H](O)[C@@H](CO)O[C@@H]1Cc1cn(C2CCCCC2)nn1 ?
5.53

pIC50 for CO[C@@H]1[C@@H](n2cc(-c3cc(F)c(F)c(F)c3)nn2)[C@@H](O)[C@@H](CO)O[C@@H]1Cn1cc(C2=CCCC2)nn1 ?
5.58

pIC50 for CO[C@@H]1[C@@H](n2cc(-c3cc(F)c(F)c(F)c3)nn2)[C@@H](O)[C@@H](CO)O[C@@H]1Cc1cc(C2CCN(C(=O)NC(C)(C)C)CC2)on1 ?
6.64

pIC50 for Cc1ccc(-c2cn([C@H]3[C@@H](O)[C@@H](CO)O[C@H](Cc4cc(C(C)(C)C)on4)[C@@H]3OCC(=O)O)nn2)c(F)c1F ?
5.28

pIC50 for CC(=O)O[C@@H]1[C@@H](n2cc(-c3cc(F)c(F)c(F)c3)nn2)[C@@H](O)[C@@H](CO)O[C@@H]1Cc1cc(C2CCNCC2)on1 ?
4.87

pIC50 for CO[C@@H]1[C@@H](n2cc(-c3cc(F)c(F)c(F)c3)nn2)[C@@H](O)[C@@H](CO)O[C@@H]1CC1CC(C2CCN(C(C)=O)CC2)=NO1 (mixture of isomers) ?
5.73

pIC50 for CO[C@@H]1[C@@H](n2cc(-c3ccc(Cl)c(F)c3F)nn2)[C@@H](O)[C@@H](CO)O[C@@H]1Cc1cc(C2CCCC2)on1 ?
5.73
